B1: library; a variant is named by its letters at N, in order (parent)
chain: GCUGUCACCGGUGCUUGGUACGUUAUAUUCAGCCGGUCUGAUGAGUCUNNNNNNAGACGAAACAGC

variants of: B1; experiment: normalized RNA/DNA level with ligand (relative to sTRSVctl = 100) (log10 (% of sTRSVctl)); HEK293T overexpressing SLC46A1; ligand concentration (+) RNA-Seq: 6 mM; higher = less ribozyme self-cleavage, higher mRNA level; settings: with (6R,S)-folinic acid; ligand present: yes
Property name: normalized RNA/DNA level with ligand (log10)
Give bare numbers.

Here is how some variants turned out for normalized RNA/DNA level with ligand (log10).
>>> test_result("GCUGUCACCGGUGCUUGGUACGUUAUAUUCAGCCGGUCUGAUGAGUCUCACAAAAGACGAAACAGC [CACAAA]")
1.99
>>> test_result("GCUGUCACCGGUGCUUGGUACGUUAUAUUCAGCCGGUCUGAUGAGUCUGGAGGAAGACGAAACAGC [GGAGGA]")
2.01
>>> test_result("GCUGUCACCGGUGCUUGGUACGUUAUAUUCAGCCGGUCUGAUGAGUCUCUCACCAGACGAAACAGC [CUCACC]")
1.96
>>> test_result("GCUGUCACCGGUGCUUGGUACGUUAUAUUCAGCCGGUCUGAUGAGUCUACCAACAGACGAAACAGC [ACCAAC]")
2.02
>>> test_result("GCUGUCACCGGUGCUUGGUACGUUAUAUUCAGCCGGUCUGAUGAGUCUAGUUUAAGACGAAACAGC [AGUUUA]")
2.03

Provide normalized RNA/DNA level with ligand (log10) values for the following items, in order.
1. GCUGUCACCGGUGCUUGGUACGUUAUAUUCAGCCGGUCUGAUGAGUCUACAACAAGACGAAACAGC [ACAACA]
2. GCUGUCACCGGUGCUUGGUACGUUAUAUUCAGCCGGUCUGAUGAGUCUAGAAGUAGACGAAACAGC [AGAAGU]
3. GCUGUCACCGGUGCUUGGUACGUUAUAUUCAGCCGGUCUGAUGAGUCUGCGAGCAGACGAAACAGC [GCGAGC]
4. GCUGUCACCGGUGCUUGGUACGUUAUAUUCAGCCGGUCUGAUGAGUCUUAUGCCAGACGAAACAGC [UAUGCC]
5. GCUGUCACCGGUGCUUGGUACGUUAUAUUCAGCCGGUCUGAUGAGUCUUUCUCUAGACGAAACAGC [UUCUCU]

Response:
2.03
1.97
2.04
1.99
2.05

Give normalized RNA/DNA level with ligand (log10) for each of the items listed below.
1. GCUGUCACCGGUGCUUGGUACGUUAUAUUCAGCCGGUCUGAUGAGUCUAGGCGCAGACGAAACAGC [AGGCGC]
2. GCUGUCACCGGUGCUUGGUACGUUAUAUUCAGCCGGUCUGAUGAGUCUUAAAGCAGACGAAACAGC [UAAAGC]
3. GCUGUCACCGGUGCUUGGUACGUUAUAUUCAGCCGGUCUGAUGAGUCUGUUCGAAGACGAAACAGC [GUUCGA]
4. GCUGUCACCGGUGCUUGGUACGUUAUAUUCAGCCGGUCUGAUGAGUCUAAUCUAAGACGAAACAGC [AAUCUA]

Response:
1. 2.03
2. 2
3. 2
4. 2.01

Report normalized RNA/DNA level with ligand (log10) for every entry below.
1. GCUGUCACCGGUGCUUGGUACGUUAUAUUCAGCCGGUCUGAUGAGUCUAGUUCGAGACGAAACAGC [AGUUCG]
2. GCUGUCACCGGUGCUUGGUACGUUAUAUUCAGCCGGUCUGAUGAGUCUAUGAUCAGACGAAACAGC [AUGAUC]
3. GCUGUCACCGGUGCUUGGUACGUUAUAUUCAGCCGGUCUGAUGAGUCUAGGUCGAGACGAAACAGC [AGGUCG]
4. GCUGUCACCGGUGCUUGGUACGUUAUAUUCAGCCGGUCUGAUGAGUCUCUUAUUAGACGAAACAGC [CUUAUU]
5. GCUGUCACCGGUGCUUGGUACGUUAUAUUCAGCCGGUCUGAUGAGUCUUAUUUCAGACGAAACAGC [UAUUUC]

Response:
[2, 2.06, 2.05, 2.01, 2.01]

Please state normalized RNA/DNA level with ligand (log10) for every variant in the list that follows.
1. GCUGUCACCGGUGCUUGGUACGUUAUAUUCAGCCGGUCUGAUGAGUCUACAGAUAGACGAAACAGC [ACAGAU]
2. GCUGUCACCGGUGCUUGGUACGUUAUAUUCAGCCGGUCUGAUGAGUCUUCGUCCAGACGAAACAGC [UCGUCC]
3. GCUGUCACCGGUGCUUGGUACGUUAUAUUCAGCCGGUCUGAUGAGUCUUGCGCAAGACGAAACAGC [UGCGCA]
4. GCUGUCACCGGUGCUUGGUACGUUAUAUUCAGCCGGUCUGAUGAGUCUGGUUGAAGACGAAACAGC [GGUUGA]
5. GCUGUCACCGGUGCUUGGUACGUUAUAUUCAGCCGGUCUGAUGAGUCUCCAAUCAGACGAAACAGC [CCAAUC]
6. GCUGUCACCGGUGCUUGGUACGUUAUAUUCAGCCGGUCUGAUGAGUCUUCGAUAAGACGAAACAGC [UCGAUA]
7. GCUGUCACCGGUGCUUGGUACGUUAUAUUCAGCCGGUCUGAUGAGUCUUAAAGUAGACGAAACAGC [UAAAGU]
8. GCUGUCACCGGUGCUUGGUACGUUAUAUUCAGCCGGUCUGAUGAGUCUGGCGCGAGACGAAACAGC [GGCGCG]

Response:
1. 2.03
2. 2.06
3. 1.98
4. 2.07
5. 1.99
6. 2.02
7. 1.99
8. 2.06
